Test system: Influenza A virus
procedure.details: Antiviral activity against group 2 influenza A virus H3N2 (A/Hong Kong-11/1968) infected in human A549 cells assessed as inhibition of viral entry preincubated with compound for 30 mins followed by viral infection for 1 hour further incubated for 48 hrs with replacement of fresh medium containing compound
Format: functional, organism-based
Each entry below carries its recorded pEC50.
In simple prose, pEC50 is minus the logarithm base ten of a concentration in moles per litre.

I am curious: what pEC50 value has been reported for Fc1ccc(-c2nc3ncccn3c2NC2CCCCC2)cc1 ?
6.49

---
# get_value(readout='pEC50', item= CCOC(=O)C1=C[C@@H](OC(CC)CC)[C@H](NC(C)=O)[C@@H](N)C1 )
7.66

What does the record list as pEC50 for Cc1cc(Br)ccc1-c1nc2ncccn2c1NC1CCCCC1 ?
6.47

Request the reported pEC50 associated with Oc1ccc(-c2nc3ncccn3c2NC2CCCCC2)cc1
6.44

What measured pEC50 goes with Brc1ccc(-c2nc3ncccn3c2NC2CCCCC2)cc1 ?
6.72

Could you share which pEC50 value was measured for COc1ccc(-c2nc3ncccn3c2NC2CCCCC2)cc1 ?
7.52

Reported pEC50 for c1ccc(-c2nc3ncccn3c2NC2CCCCC2)cc1 : what is it?
7.15
